# Tested on: SN12C renal
# PROCEDURE SUMMARY: NCI-60 one-dose screen, 48 h
# CONDITION INFO: 10 µM unless noted
This is part of a sample that, as a whole, favours compounds with a hit. Of some 83,000 tested, about 20% had one in any assay. Activity calls are given as the source filed them. How the source made its calls: active means growth percent below 10; inactive means the rest.
Use one of these outcomes when replying: yes (1) (active), no (0) (inactive)

Worked examples, 5 compounds total:
CCN1C2=C(SC(=S)C1=C1SC(C(=O)OC)=C(C(=O)OC)S1)SC(=Nc1ccc(OC)cc1)C2=O : yes (1)
CN(C)c1cccc2c(S(=O)(=O)N[C@H]3CC[C@H]4[C@@H]5CCc6cc(O)ccc6[C@H]5CC[C@]34C)cccc12 : no (0)
Clc1ncn[nH]1 : no (0)
CCCc1cccc(CCC)c1O : no (0)
O=C(Nc1ncc([N+](=O)[O-])s1)c1cccc([N+](=O)[O-])c1 : no (0)

Next item in the queue.
Asked: Check the results log: what was the call for Cc1ccc(NC(=O)CSc2nnc3n(Cc4ccccc4)c(=O)c4c(C)c(C(N)=O)sc4n23)cc1 ?
Given back: no (0)
